biological target: T1, pSAKLDEESILKQ-Biotin; test: Octet (BLI), fixed reagent concentration;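 note: octet binding of candidate PTM-specific affinity reagents, each at one fixed concentration, to biotinylated phospho-Thr or phospho-Ser peptides, with unmodified biotinylated peptides serving as controls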
T1 peptide: [pS]AKLDEESILKQ-{Biotin′}
Primed or numbered codes have the meaning given here. Where no end group is shown, it is not given here. [ ]: non-standard residue; d: D form. pS = N[C@@H](COP(=O)(O)O)C(=O)O; Biotin′ = not defined here
List of Octet binding assay response values.

{"columns": ["binder", "Octet binding assay response"],
 "data": [
  ["PM01 (Human/14-3-3 protein epsilon) (other) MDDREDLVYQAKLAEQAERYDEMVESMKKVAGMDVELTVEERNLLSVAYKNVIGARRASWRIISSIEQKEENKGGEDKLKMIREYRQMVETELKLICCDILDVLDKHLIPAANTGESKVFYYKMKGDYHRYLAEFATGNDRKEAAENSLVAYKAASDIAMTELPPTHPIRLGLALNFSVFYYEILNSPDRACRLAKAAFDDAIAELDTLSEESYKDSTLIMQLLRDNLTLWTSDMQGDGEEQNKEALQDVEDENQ", 0.2],
  ["PM21 (Human/PHF3) (other) MTFLARLNFIWKGFINMPSVAKFVTKAYPVSGSPEYLTEDLPDSIQVGGRISPQTVWDYVEKIKASGTKEICVVRFTPVTEEDQISYTLLFAYFSSRKRYGVAANNMKQVKDMYLIPLGATDKIPHPLVPFDGPGLELHRPNLLLGLIIRQKL", 0.2],
  ["PM22 (Schizosaccharomyces pombe/FCP1) (other) MKQKVLKGCRLLFSGVIPLGVDVLSSDIAKWAMSFGAEVVLDFSVPPTHLIAAKIRTEKVKKAVSMGNIKVVKLNWLTESLSQWKRLPESDYLL", 0.1]
]}
